Assay: NCI Yeast Anticancer Drug Screen. Data for the mgt1 strain (AID 153)
Conditions: S. cerevisiae mgt1 mutant growth inhibition; at 11.0 µM
Compounds without any hit were thinned out: in the full panel of roughly 79,000, 15% have a hit. The source made the active and inactive calls. Cut-off read from the data, not from the text of the source: active = growth inhibition above about 70%; inactive = the rest.
Labels: yes for active, no for inactive

| molecule | assigned-category |
| --- | --- |
| Nc1ccc2c(c1)C(=O)c1cccc(N)c1C2=O | no |
| Cc1cccc2c(C(O)CBr)cc(-c3ccc(Cl)cc3)nc12 (stereo unspecified) | yes |
| CC(=O)[O][Bi]([c]1ccccc1)[c]1ccccc1 | no |
| CCCCOC(=O)N[C@H]1CCc2cc(OC)c(OC)c(OC)c2-c2ccc(SC)c(=O)cc21 | no |
| O=C(CCCN1CCC(O)(c2ccc(Cl)cc2)CC1)c1ccc(F)cc1 | no |
| OC1CSCCCSCCSCCCSC1 | no |

---

Assay: NCI Yeast Anticancer Drug Screen. Data for the mec2-1 strain (AID 157)
Conditions: S. cerevisiae mec2-1 strain, at 50.0 µM (retest, dose inferred, filed as 5.0), active compounds read high
Experimental: Growth inhibition of yeast strains with defined genetic alterations is measured as a screen for potential anti-cancer activity. Selected strains with alterations in DNA damage repair or cell cycle control were exposed to compounds and growth inhibition was measured relative to vehicle treated controls. The strain used in this assay is mec2-1
This is part of a sample that, as a whole, favours compounds with a hit. Of some 79,000 tested, about 15% had one in any assay.
I'd appreciate it if you could label each record using growth inhibition and these ranges: low = under 30%, middle = from 30% up to 90%, high = 90% and over

| molecule | assigned-category |
| --- | --- |
| O=C(NCCCCCCCN1CCCCCCC1)C(C1CCCCC1)C1CCCCC1 | high |
| O=[N+]([O-])C(=C(Sc1ccccc1)Sc1ccccc1)C(Cl)=C(Cl)Cl | low |
| CCCCCCCCCCNC(=O)OCC | low |
| S=C(Nc1ccc(Cl)cc1)SC1CCCCC1 | middle |
| O=[N+]([O-])CC(SCc1ccccc1)c1ccc2c(c1)OCO2 (configuration not stated) | high |
| COC1=CC(=O)C(C2(OC(C)C)OC(=O)C(Cl)=C2Cl)=CC1=O (configuration not stated) | high |
| Cc1c(C2=C(Br)C(=O)N(C)C2=O)c(=O)n(C)c(=O)n1C | low |
| CC(Br)C(=O)c1ccc2cc(Br)c3ccccc3c2c1 (configuration not stated) | low |
| COC(=O)c1ccc([N+](=O)[O-])c(O)c1 | middle |
| Cc1cc(I)ccc1N | middle |
| O=C(/C=C\c1ccc(Cl)cc1Cl)c1cccs1 | low |

---

Assay: NCI Yeast Anticancer Drug Screen. Data for the mlh1 strain (AID 171)
Conditions: S. cerevisiae mlh1 strain growth inhibition; at 100.0 µM; active compounds read high
Compounds without any hit were thinned out: in the full panel of roughly 79,000, 15% have a hit.
Kind request: treat 80% as inclusive, so growth inhibition at 80% or higher is condition met, anything lower is condition not met.

| compound | assigned-category |
| --- | --- |
| S=C(N/N=C(/c1ccccc1)c1ccccn1)N1CCCCCC1 | condition not met |
| CCN(CC)CC(O)c1ccc2ccc3ccccc3c2c1 (stereo not drawn) | condition not met |
| NNC(=O)CCc1ccc2ccc3ccccc3c2c1 | condition not met |
| C/C(=N\NC(=S)SCc1ccccc1)c1ccccn1 | condition met |
| O=[N+]([O-])c1ccc(=S)[nH]c1 | condition met |
| O=C(/C=C\c1ccc(Cl)cc1Cl)c1cccs1 | condition not met |
| CN(C)c1ccc(Sc2ccc3nc(N)nc(N)c3c2)cc1 | condition not met |
